# Tested on: MCF7 breast
# METHOD_SUMMARY: NCI tumour cell line growth inhibition, 48 h
The label depends only on TGI: True if it is at least 5 µM, False if it is smaller.

Please tell me: is the molecule `O=[N+]([O-])/C(C(Cl)=C(Cl)Cl)=C(/Br)SCc1ccccc1` at or over 5 µM in terms of TGI?
True

Please tell me: is the molecule `CCCCCCCCCCCCCCCCCCOP(=O)([O-])OCC[N+](C)(C)C` at or over 5 µM in terms of TGI?
False

Please tell me: is the molecule COc1ccc(OC)c(C#N)c1C#N (tested in a mixture with another compound) at or over 5 µM in terms of TGI?
True

Please tell me: is the molecule C=C1CC2(CCOc3ccc(Cl)cc32)OC1=O (stereo not given) at or over 5 µM in terms of TGI?
True

Please tell me: is the molecule `COc1cc(-c2nn(-c3cccc(NC(=O)Nc4cccc(C(F)(F)F)c4)c3)cc2-c2ccncc2)ccc1Cl` at or over 5 µM in terms of TGI?
False

Please tell me: is the molecule O=C(NC(Cc1ccc(I)cc1)C(=O)O)c1cccc(Br)c1 (stereo not given) at or over 5 µM in terms of TGI?
True

Please tell me: is the molecule `CCOC(=O)[C@@H]1[C@@H]2NC(=O)N[C@@]1(C)Oc1ccccc12` at or over 5 µM in terms of TGI?
True

Please tell me: is the molecule `COc1cc(-c2nc3ccc(N4CCN(C)CC4)cc3[nH]2)c(OC)c2[nH]c(CO)nc12` at or over 5 µM in terms of TGI?
True

Please tell me: is the molecule COc1ccc(C2C=C(c3ccc(OC)c(OC)c3)N=C3SC=CN32)c(Br)c1 (stereo not given) at or over 5 µM in terms of TGI?
False

Please tell me: is the molecule `c1ccc(-c2nnc(CCCCCCCCc3nnc(-c4ccccc4)o3)o2)cc1` at or over 5 µM in terms of TGI?
True

* * *

Would you kindly list TGI for each of these compounds?
# Test system: UO-31 renal
# METHOD_SUMMARY: NCI tumour cell line growth inhibition, 48 h
Where a SMILES comes first, the peptide text is derived from it. [ ]: non-standard residue; d: D form. The star is where a group is joined. ξ: configuration not given here. NMeF = CN[C@@H](Cc1ccccc1)C(=O)O; NMeV = CN[C@H](C(=O)O)C(C)C; ξNMeN = CNC(CC(N)=O)C(=O)O; NMeA = CN[C@@H](C)C(=O)O; ξNMeV = CNC(C(=O)O)C(C)C; Boc = CC(C)(C)OC(=O)*

# TGI of Nc1ncnc2c1ncn2C1CC(O)C(CO)O1 (stereo not drawn) = > 100 µM

# TGI of `CCn1c(=O)c2cn[nH]c2n(C)c1=O` = > 100 µM

# TGI of `CC(=O)Nc1ccc(C2C(C(=O)Nc3ccccc3)=C(C)NC(C)=C2C(=O)Nc2ccccc2)cc1` = > 100 µM

# TGI of `CC(=O)Nc1ccc(-c2nnc(SCC(=O)Nc3ccccc3)o2)cc1` = > 100 µM

# TGI of `N#C/C(=C\c1ccc(Br)cc1)n1nnc2c(F)cccc21` = 2.24 µM

# TGI of NC(Cc1ccccc1)P(=O)(O)O (stereo not drawn) = > 100 µM

# TGI of `C=C=C(Sc1ccccc1)C(C)(C)O` = > 100 µM

# TGI of `COc1ccc2c(c1)[n+](=O)c(C(=O)CC(=O)C(=O)Nc1cccc(Cl)c1C)c(C)n2[O-]` = > 100 µM

# TGI of `CN(C)c1ccc(/C=C2\C[C@H]3[C@@H]4CC=C5C[C@@H](O)CC[C@]5(C)[C@H]4CC[C@]3(C)C2=O)cc1` = 18.9 µM

# TGI of CSC1N=CNc2c1sc(=S)n2-c1ccccc1 (stereo not drawn) = > 100 µM

# TGI of `Cc1cc(=O)[nH]c(S(=O)(=O)NC(=S)Nc2ccc(Cl)cc2)n1` = > 100 µM

# TGI of `O=C1C=C(Nc2ccc(Br)cc2)c2ccccc2C1=O` = 29.6 µM

# TGI of `O=c1c(=O)c2cscc2c1=O` = 9.6 µM

# TGI of O=C(Nc1nnc(-c2ccc(Cl)cc2)o1)C(SC(=S)N1CCCCC1)c1ccccc1 (stereo not drawn) = 27.8 µM

# TGI of `ONCCCn1cnc2c(NC3CC3)ncnc21` = > 100 µM

# TGI of `CC(=O)N1CCC(Nc2ncc3cc(Oc4ccc(F)cc4F)c(=O)n(C)c3n2)CC1` = > 25 µM

# TGI of CC1OC(n2cc(Cl)c(=O)[nH]c2=O)C=C(OC(=O)c2ccccc2)C1=O (stereo not drawn) = > 100 µM

# TGI of COC(=O)[C@H](C)N(C)C(=O)C(CC(N)=O)N(C)C(=O)[C@H](Cc1ccccc1)N(C)C(=O)[C@@H]1CCCN1C(=O)[C@H](C(C)C)N(C)C(=O)C(C(C)C)N(C)C(=O)[C@@H](NC(=O)OC(C)(C)C)C(C)C (stereo partly drawn) (Boc-V[ξNMeV][NMeV]P[NMeF][ξNMeN][NMeA]-OMe) = > 75 µM
